Target: T1, human EpCAM (epithelial cell adhesion/activating molecule) (human, UniProt P16422 24-314)
T1 sequence: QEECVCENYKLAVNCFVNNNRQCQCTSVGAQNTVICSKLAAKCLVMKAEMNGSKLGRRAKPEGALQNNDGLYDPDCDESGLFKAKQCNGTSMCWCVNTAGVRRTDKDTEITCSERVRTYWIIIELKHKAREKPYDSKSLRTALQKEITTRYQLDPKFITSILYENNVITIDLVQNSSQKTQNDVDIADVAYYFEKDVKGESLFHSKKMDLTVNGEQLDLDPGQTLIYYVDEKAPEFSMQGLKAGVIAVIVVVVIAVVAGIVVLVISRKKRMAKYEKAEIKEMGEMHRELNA
Test: cell-based or functional assay
Measurement Kind: % Annexin V/PI-positive cells, T-47D, 10 µg/ml mAb (%)
A number alone suffices; assume %.

In the examples that follow, each entry is paired with its recorded % Annexin V/PI-positive cells, T-47D, 10 µg/ml mAb.
murine monoclonal antibody 2D11 (antibody, mouse IgG1, V domains shown, Mouse IgG1, kappa, from hybridoma; also called m322-2D11.19) VH: QIQLVQSGPELKKPGETVKISCKASGYTFTNYGMNWVKQAPGKGLKWMGWINTNTGEATYVEEFKGRVVFSLETSASTAYLQINNLKNEDTATYFCARIGYVWYFDVWGAGTTVTVSS VL: DIVMSQSPSSLAVSAGEKVTMSCKSSQSLFSSRTRKNYLAWYQQKPGQSPKLLIYWASTRESGVPDRFTGSGSGTDFTLTINSVQAEDLAVYYCKHSNNLFTFGSGTKLEIKR; 45
murine monoclonal antibody 4D2 (antibody, mouse IgG1, V domains shown, Mouse IgG1, kappa, from hybridoma; also called m338-4D2.20) VH: EVQLVESGGDLVKPGGSLKLSCAASGFAFDSYGMSWVRQTPGKRLEWVATISSGGYYTYYQDSVKGRFTTSRDNAKNTLDLQMSSLKSEDSAIYYCARRGNYDVDYYAMDYWGQGTSVTVSS VL: DVVMTQTPLSLPVSLGDQASISCRSSQSLVHSNGNTYLHWYLQKPGQSPKLLIYKVSNRFSGVPDRFSGSGSGTDFTLRISRVEAEDLGVYFCSQSTHVPPWTFGGGTKLEIKR; 45
murine monoclonal antibody 6D11 (antibody, mouse IgG1, V domains shown, Mouse IgG1, kappa, from hybridoma; also called m338-6D11.8) VH: EVQLVESGGDLVKPGGSLKLSCAASGFAFDSYGMSWIRQTPGTRLEWVATISSGGYYTYYEDNVKGRFIISRDNAKNTLDLQMSGLKSEDAATYYCARRGNYDVDYYAMDYWGQGTSVIVSS VL: DVVLTQIPLSLPVSLGDQASISCRSSQSLEHSNGNTYLHWYLQKPGQSPKLLIYKVSNRFSGVPDRFSGSGSGTDFTLKISRVEAEDLGVYFCSQSTHVPPWTFGGGTKLEFKR; 44

Ask | // returns reported % Annexin V/PI-positive cells, T-47D, 10 µg/ml mAb for input murine monoclonal antibody 12H8 (antibody, mouse IgG2a, V domains shown, Mouse IgG2a, kappa, from hybridoma; also called m342-12H8.3; m12H8) VH: QIQLVQSGPELKKPGETVKISCKTSGYTFTDYSMHWVNQAPGKGLKWMGWINTETGEPTYTDDFKGRFAFSLETSASTAYLQINNLKNEDTATYFCARTAVYWGQGTTLTVSS VL: DIQMTQSPSSLSASLGERVSLTCRASQEISGSLSWLQQKPDGTIKRLIYAASTLNSGVPKRFSGRRSGSDYSLTISSLESEDFVDYYCLQYSSYPWSFGGGTKLEIKR
Reply | 56

Measured values drawn from patent US20110165161A1 for this set.
